Test: Single dose crossover study in healthy volunteers, pharmacokinetics
Conditions: both, human, plasma, iv, 0.3 mg/kg, AUC0-inf, geometric mean, plasma analyte after single dose esketamine 0.3 mg/kg iv
# key: entry, value: AUC(0-inf)
Numbers only here, please. The scale is ng·h/mL.

N[C@]1(c2ccccc2Cl)CCC[C@H](O)C1=O [(2S,6S)-OH-Norketamine] : 390

Q: What value of AUC(0-inf) has been recorded for this entry: N[C@]1(c2ccccc2Cl)CCCCC1=O [(S)-norketamine]
A: 441

Q: Follow-up item: CN[C@]1(c2ccccc2Cl)CCCCC1=O [esketamine]
A: 257

----------
Test: Repeated dose 28 day toxicokinetics
Details: male, Sprague Dawley, rat, in vivo, po, 30 mg/kg, Cmax, Day 1, male rats, 30 mg/kg oral
experimental.readout: Cmax (ng/mL)
Give the value, in units of ng/mL, as a plain number.

Q: Looking for the measured Cmax of CN[C@]1(c2ccccc2Cl)CCCCC1=O , can you help?
A: 296

----------
Test: Repeated dose 28 day toxicokinetics
Conditions: female, Sprague Dawley, rat, in vivo, po, 2 mg/kg, tmax, Day 1, female rats, 2 mg/kg oral
experimental.readout: Tmax (min)
Write the answer as a number in min, unit excluded.

Q: Dear colleague, I am looking for the recorded Tmax of the following compound: CN[C@]1(c2ccccc2Cl)CCCCC1=O
A: 10.2

----------
Test: Repeated dose 28 day toxicokinetics
Details: male, Sprague Dawley, rat, in vivo, po, 10 mg/kg, tmax, Day 28, male rats, 10 mg/kg oral
experimental.readout: Tmax (min)
Report only the number, with the unit min understood.

Q: GET /values?readout=Tmax&item= CN[C@]1(c2ccccc2Cl)CCCCC1=O [esketamine]
A: 10.2

----------
Experiment: Repeated dose 28 day toxicokinetics
Details: male, Sprague Dawley, rat, in vivo, po, 6 mg/kg, t1/2, Day 28, male rats, 6 mg/kg oral
experimental.readout: half-life
Could you kindly put the unit after your number?

Q: Any idea what its half-life is? The compound is CN[C@]1(c2ccccc2Cl)CCCCC1=O
A: 36 min

----------
Test: Repeated dose 28 day toxicokinetics
Conditions: male, Sprague Dawley, rat, in vivo, po, 10 mg/kg, Cmax, Day 28, male rats, 10 mg/kg oral
experimental.readout: Cmax (ng/mL)
Dear colleague, please return just the value in ng/mL, with no unit written.

Q: Quick one: Cmax of CN[C@]1(c2ccccc2Cl)CCCCC1=O [esketamine] ?
A: 211

----------
Test: Repeated dose 28 day toxicokinetics
Conditions: male, Sprague Dawley, rat, in vivo, po, 6 mg/kg, tmax, Day 28, male rats, 6 mg/kg oral
experimental.readout: Tmax (min)
Field: numeric (min). Do not append units.

Q: Fill in the blank: the reported Tmax of CN[C@]1(c2ccccc2Cl)CCCCC1=O [esketamine] is ____.
A: 10.2

----------
Assay: Single dose crossover study in healthy volunteers, pharmacokinetics
Conditions: both, human, plasma, po, 20 mg, AUC0-inf, geometric mean, plasma analyte after single dose esketamine 20 mg oral tablet
Below, each entry is listed with its recorded AUC(0-inf).
Provide only the numeric value, understood in ng·h/mL.

N[C@]1(c2ccccc2Cl)CCCCC1=O [(S)-norketamine] : 429
N[C@]1(c2ccccc2Cl)CCC[C@H](O)C1=O [(2S,6S)-OH-Norketamine] : 401

In the following, a different compound is considered.
Q: # input compound: CN[C@]1(c2ccccc2Cl)CCCCC1=O [esketamine] ; wanted: its AUC(0-inf)
A: 22.5
